Target: recombinant rat PIM-3 (Rattus norvegicus)
Assay: PIM-3 Assay (as Example A with recombinant rat PIM-3)
Conditions: 30 μM ATP, 3.75 μM PIM2tide, 0.5 nM PIM-3; high dose 10 μM
QUANTITY_KIND: IC50 (nM)

1) NCC1CCN(c2ccc(F)c3ccc(-c4nnc5ccccn45)nc23)CC1; 51
2) NCC1CCN(c2cc(F)cc3ccc(-c4nnc5ccccn45)nc23)CC1; 10
3) N[C@@H]1CCN(c2cccc3ccc(-c4nnc5ccccn45)nc23)C[C@@H]1F (relative stereo); 38
4) NCc1ccn2c(-c3ccc4cccc(N5CCC(CN)CC5)c4n3)nnc2c1; 4
5) CC1(C)CN(c2cccc3ccc(-c4nnc5ccccn45)nc23)CCN1; 62
6) NCC1CCN(c2cccc3ccc(-c4nnc5cc(CO)ccn45)nc23)CC1; 217
7) CC1(N)CCN(c2cccc3ccc(-c4nnc5ccccn45)nc23)CC1; 62
8) NC1CCN(c2cccc3ccc(-c4nnc5ccccn45)nc23)CC1; 24
9) c1cc(N2CCNCC2)c2nc(-c3nnc4ccccn34)ccc2c1; 105
10) c1cc(N2CCCCC2)c2nc(-c3nnc4ccccn34)ccc2c1; 121
11) NCC1CCN(c2cccc3ccc(-c4nnc5cc(C(O)CO)ccn45)nc23)CC1 (stereo not shown); 20
12) COCCOc1ccn2c(-c3ccc4cccc(N5CCNCC5)c4n3)nnc2c1; 554
13) COc1ccn2c(-c3ccc4cccc(N5CCC(N)CC5)c4n3)nnc2c1; 60
